Origin of values: the RNAGym collection of RNA variant scans (doi:10.1073/pnas.2313332121)

B1: TPR 5TU (parent)
chain: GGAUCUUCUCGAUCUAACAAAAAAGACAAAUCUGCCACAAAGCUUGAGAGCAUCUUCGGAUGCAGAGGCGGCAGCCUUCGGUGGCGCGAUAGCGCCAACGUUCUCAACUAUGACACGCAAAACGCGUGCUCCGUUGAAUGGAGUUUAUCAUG

Variants of: B1
Test: polymerase ribozyme fitness, log enrichment relative to wild type (log ratio); higher = more active; in vitro selection for triplet polymerase activity
This sample holds only a part of the variants without activity.
parameter: polymerase ribozyme fitness (log ratio)
Give bare numbers.

Solved cases (3 shown):
# sequence_variant, parameter, experimental_result
records = [
    ("C51U A73U C118G A119C", "polymerase ribozyme fitness (log ratio)", -1.81),
    ("G71C U82C", "polymerase ribozyme fitness (log ratio)", -2.48),
    ("C85U C87U", "polymerase ribozyme fitness (log ratio)", 0.308),
]

// input: 8 variants below; output: polymerase ribozyme fitness (log ratio) for each
1. U55G C72U G83U C96U
2. G124U U135C
3. A16G C57A G62A C96U
4. A41C U56A C87U
5. G92C U139A
6. U45G G59A
7. U33C A97G
8. U55G G86A U139G

[-1.11, -2.36, -1.89, -1.41, -4.2, -0.523, -2.92, -1.96]

// input: 4 variants below; output: polymerase ribozyme fitness (log ratio) for each
1. G84U G133C
2. A37U C38G A97C
3. C129A G143A A150G
4. A89G C131A

-3.53
-1.69
-3.66
-2.5
